# System: adenocarcinomic human alveolar basal epithelial cell line A549
# ASSAY_REMARKS: CellTiter-Glo cell survival assay of anticancer agents (Experimental Example 8)
# Format: cell-based
# APPLIED_CONDITIONS: Homo sapiens, A549, cell survival assay by luminescence; low-molecular agar-containing medium; read-out: 50% inhibitory concentration
MEASURED_PARAMETER: pIC50
Scale: pIC50 equals -log10([C]), with [C] in mol/L.

{"GIVEN_SMILES": "CO[C@@]12[C@H](COC(N)=O)C3=C(C(=O)C(C)=C(N)C3=O)N1C[C@@H]1N[C@@H]12", "READING": 8.00}
{"GIVEN_SMILES": "NC1(c2ccc(-c3nc4ccn5c(=O)[nH]nc5c4cc3-c3ccccc3)cc2)CCC1", "READING": 6.60}
{"GIVEN_SMILES": "CC(=O)Nc1cccc(-n2c(=O)n(C3CC3)c(=O)c3c(Nc4ccc(I)cc4F)n(C)c(=O)c(C)c32)c1", "READING": 8.09}

Here is another molecule to look at.
Problem: Param readout = pIC50; param system = adenocarcinomic human alveolar basal epithelial cell line A549; param query = CC(=O)O[C@H]1C(=O)[C@@]2(C)[C@H]([C@H](OC(=O)c3ccccc3)[C@]3(O)C[C@H](OC(=O)[C@H](O)[C@@H](NC(=O)c4ccccc4)c4ccccc4)C(C)=C1C3(C)C)[C@]1(OC(C)=O)CO[C@@H]1C[C@@H]2O ; response: value
Result: 8.31
